# Assayed target: T1, human IL-11 (human, UniProt P20809 22-199)
# T1 construct: bought from Invigate; also called hIL-11; hIL11
# T1 sequence: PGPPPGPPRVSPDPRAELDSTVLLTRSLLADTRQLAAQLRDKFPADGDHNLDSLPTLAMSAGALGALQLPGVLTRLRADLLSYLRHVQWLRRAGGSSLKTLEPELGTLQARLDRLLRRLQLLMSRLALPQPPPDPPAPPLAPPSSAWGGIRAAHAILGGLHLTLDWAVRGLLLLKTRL
# Test summary: SPR, antibody captured, IL-11 as analyte
Would you kindly list pKd for each of these binders?
Numbers only, as −log10 of the molar value.

These solved cases illustrate the format of a correct answer.
Binder	pKd
TPP-26293 (antibody, V domains shown, constant regions not restated) VH: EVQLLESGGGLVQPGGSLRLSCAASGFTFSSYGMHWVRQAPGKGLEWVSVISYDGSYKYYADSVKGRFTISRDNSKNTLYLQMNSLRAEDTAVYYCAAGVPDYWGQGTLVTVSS VL: QSVLTQPPSASGTPGQRVTISCTGSSSNIGAWYDVHWYQQLPGTAPKLLIYSNNERPSGVPDRFSGSKSGTSASLAISGLRSEDEADYYCAAWDDSLNGPVFGGGTKLTVL	7.96
TPP-26308 (antibody, V domains shown, constant regions not restated) VH: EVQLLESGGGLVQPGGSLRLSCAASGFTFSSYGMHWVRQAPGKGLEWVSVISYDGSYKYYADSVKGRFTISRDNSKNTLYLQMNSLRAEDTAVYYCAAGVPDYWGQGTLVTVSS VL: QSVLTQPPSASGTPGQRVTISCTGSSSNIGAGYDVHWYQQLPGTAPKLLIYSNNERPSGVPDRFSGSKSGTSASLAISGLRSEDEADYYCAAWDVSLNGPVFGGGTKLTVL	7.77

What pKd value was documented for this binder, TPP-26290 (antibody, V domains shown, constant regions not restated) VH: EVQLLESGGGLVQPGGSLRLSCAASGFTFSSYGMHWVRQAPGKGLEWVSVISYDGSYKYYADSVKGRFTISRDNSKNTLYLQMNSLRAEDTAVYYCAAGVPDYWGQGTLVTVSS VL: QSVLTQPPSASGTPGQRVTISCTGSSSNIGAGMDVHWYQQLPGTAPKLLIYSNNERPSGVPDRFSGSKSGTSASLAISGLRSEDEADYYCAAWDDSLNGPVFGGGTKLTVL ? 8.07
